- Study Target: T1, recombinant DLL3 ectodomain (rhDLL3-Fc) (human, UniProt Q9NYJ7 27-492, biotinylated (NHS-LC-LC-biotin) in the BLI and SPR assays)
- T1 construct: also called rDLL3-Fc; recombinant human DLL3 (rDLL3); not shown: Fc part
- T1 sequence: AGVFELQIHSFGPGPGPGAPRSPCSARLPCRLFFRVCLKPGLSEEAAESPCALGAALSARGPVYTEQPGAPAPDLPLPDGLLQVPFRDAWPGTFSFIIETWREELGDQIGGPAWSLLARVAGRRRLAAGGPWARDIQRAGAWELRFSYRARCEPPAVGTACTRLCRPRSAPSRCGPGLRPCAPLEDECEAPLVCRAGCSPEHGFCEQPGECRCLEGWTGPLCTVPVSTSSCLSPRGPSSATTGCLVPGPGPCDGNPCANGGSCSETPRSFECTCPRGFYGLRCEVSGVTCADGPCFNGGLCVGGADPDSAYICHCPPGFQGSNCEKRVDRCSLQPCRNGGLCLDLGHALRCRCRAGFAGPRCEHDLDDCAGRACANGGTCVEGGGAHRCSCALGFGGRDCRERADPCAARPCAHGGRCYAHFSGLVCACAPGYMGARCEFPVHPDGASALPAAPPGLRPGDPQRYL
- Method Summary: phage ELISA on rDLL3-Fc
Bridge positions count the residues as written; N and C are the ends. Ends that are not written are not given here.
Reported Metric: binding result

Sample records with binding result:
INSERT INTO results (binder, observed_value) VALUES
  ('AETVEFYGCSVTWGGYTCTW (disulfide 9-18 (inferred); not fully specified (C-terminus), not shown: M13 pIII coat protein) [SEQ ID NO 74]', 'binds'),
  ('AETVEFWSCQLGSGWWTCAW (not fully specified (bridges); cysteine pairing not given here, not shown: M13 pIII coat protein) [SEQ ID NO 71]', 'binds'),
  ('AETVEFRYCTHTQTYVQCQD (not fully specified (bridges); cysteine pairing not given here, not shown: M13 pIII coat protein) [SEQ ID NO 68]', 'binds'),
  ('AETVEFLGCHGDNSEWTCVW (not shown: M13 pIII coat protein) [SEQ ID NO 43]', 'binds');

Okay, next one:
Problem: Fill in binding result for record AETVEFWGCNLDWYGWTCWW (not fully specified (bridges); cysteine pairing not given here, not shown: M13 pIII coat protein) [SEQ ID NO 69]
Result: binds
